Consider the following compounds and their measured IC50 readings.
# Tested on: p-IKKa levels in L363 (NIK translocated multiple myeloma) cells
# testName: Assay 2: Effect of compounds on p-IKKa levels in L363 (NIK translocated multiple myeloma) cells
# Format: cell-based
# experimentalConditions: Homo sapiens, L-363, 6 h, read-out: Assay 2 IC50 (nM), p-IKKa (Ser 176/180) in BAFF stimulated L363 cells with MG132, 6 h; average if tested more than once

| compound | assayedTarget | IC50 |
| --- | --- | --- |
| Cc1cc(-c2cccc(-c3cc([C@]4(O)CCN(C)C4=O)on3)n2)nc(Nc2cnn(C)c2)n1 [Example 207] | p-IKKa levels in L363 (NIK translocated multiple myeloma) cells | > 500 nM |
| CN1CC[C@@](O)(c2cc(-c3cccc(-c4ccnc(Nc5ccncc5)n4)n3)no2)C1=O [Example 249] | p-IKKa levels in L363 (NIK translocated multiple myeloma) cells | < 50 nM |
| C[C@@H]1OCC[C@@H]1Nc1nccc(-c2cccc(-c3cc([C@]4(O)CCN(C)C4=O)on3)n2)n1 (single isomer, unassigned) [Example 347] | p-IKKa levels in L363 (NIK translocated multiple myeloma) cells | 50 to 500 nM |
| CN1CC[C@@](O)(c2cc(-c3cccc(-c4ccnc(Nc5ccn(C)n5)n4)n3)n(C)n2)C1=O (single isomer, unassigned) [Example 166] | p-IKKa levels in L363 (NIK translocated multiple myeloma) cells | > 500 nM |
| COc1nn(CC(F)F)cc1Nc1nccc(-c2cccc(-c3cnc([C@]4(O)CCN(C)C4=O)s3)n2)n1 (single isomer, unassigned) [Example 188] | p-IKKa levels in L363 (NIK translocated multiple myeloma) cells | < 50 nM |
| CN1CC[C@@](O)(c2ncc(-c3cccc(-c4ccnc(Nc5ccn(C)n5)n4)n3)s2)C1=O (single isomer, unassigned) [Example 82] | p-IKKa levels in L363 (NIK translocated multiple myeloma) cells | > 500 nM |
